Reported IC50 values for the following compounds.
- tested on: CD36 macrophage receptor (Mus musculus, UniProt Q08857)
- Construct: endogenous in cells; host or cells: J774 murine macrophage cell line
- Sequence (Q08857 whole entry): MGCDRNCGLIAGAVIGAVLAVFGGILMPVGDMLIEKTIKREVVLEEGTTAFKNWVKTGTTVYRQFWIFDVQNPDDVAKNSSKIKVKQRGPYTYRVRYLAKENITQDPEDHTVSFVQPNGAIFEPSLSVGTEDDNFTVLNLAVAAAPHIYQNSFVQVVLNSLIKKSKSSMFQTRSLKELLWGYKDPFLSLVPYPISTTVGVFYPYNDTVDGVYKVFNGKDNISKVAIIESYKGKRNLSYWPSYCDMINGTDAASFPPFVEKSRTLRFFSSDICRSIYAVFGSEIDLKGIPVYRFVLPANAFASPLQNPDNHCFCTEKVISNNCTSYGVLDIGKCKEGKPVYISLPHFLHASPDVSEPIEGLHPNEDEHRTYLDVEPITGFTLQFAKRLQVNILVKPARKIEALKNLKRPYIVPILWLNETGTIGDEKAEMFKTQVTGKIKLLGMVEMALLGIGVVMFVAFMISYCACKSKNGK
- test name: CD36 macrophage receptor binding competition assay (biotinylated CuOxLDL binding to J774 macrophages)
- Set-up: species or system murine
- Description: Data are given as relative light units (RLU) per 100 ms (milliseconds). The plot is a representative experiment chosen from among at least four experiments. […] Data are shown as mean±SD (Standard Deviation) of B/B0 from 2 independent experiments with triplicate determination. […] Binding of biotinylated OxLDL ligands to murine macrophages plated in microtiter wells was assessed by a chemiluminescent binding assay. […]
The answer is to be given in µM; state only the numeric part.

Check out these entries, answers already filled in.
compound: CCCCCCCCCCCCCCCC(=O)OC[C@H](COP(=O)([O-])OCC[N+](C)(C)C)OC(=O)CCCCN(C)CCCC[C@H](NC(=O)[C@@H](NC(C)=O)C(C)C)C(=O)NCC(=O)NCC(=O)O [Compound 25]
IC50 [µM]: 55
--
compound: CCCCCCCCCCCCCCCC(=O)OC[C@H](COP(=O)([O-])OCC[N+](C)(C)C)OC(=O)CCCCN(C)CCCC[C@H](NC(=O)[C@@H](NC(=O)CNC(=O)[C@@H](NC(C)=O)[C@@H](C)O)[C@@H](C)O)C(=O)NCC(=O)NCC(=O)O [Compound 6]
IC50 [µM]: 60
--
compound: CCCCCCCCCCCCCCCC(=O)OC[C@H](COP(=O)([O-])OCC[N+](C)(C)C)OC(=O)CCCCN(C)CCCC[C@H](NC(=O)[C@H](C)NC(C)=O)C(=O)NCC(=O)NCC(=O)O [Compound 24]
IC50 [µM]: 131
--
compound: CCCCCCCCCCCCCCCC(=O)OC[C@H](COP(=O)([O-])OCC[N+](C)(C)C)OC(=O)CCCCN(C)CCCC[C@H](NC(=O)[C@H](Cc1ccccc1)NC(C)=O)C(=O)NCC(=O)NCC(=O)O [Compound 26]
IC50 [µM]: 47

Turning now to a further record.
I am curious: what IC50 value has been reported for CCCCCCCCCCCCCCCC(=O)OC[C@H](COP(=O)([O-])OCC[N+](C)(C)C)OC(=O)CCCCN(C)CCCC[C@H](NC(=O)[C@H](Cc1ccccc1)NC(=O)[C@H](C)NC(C)=O)C(=O)NCC(=O)NCC(=O)O [Compound 27] ?
47

---

- test name: Solubility in water / aqueous buffers
parameter: water solubility / solubility in aqueous buffers

compound: CCCCCCCCCCCCCCCC(=O)OC[C@H](COP(=O)([O-])OCC[N+](C)(C)C)OC(=O)CCCCOCCCC[C@H](NC(=O)[C@@H](NC(=O)CNC(=O)[C@@H](NC(C)=O)[C@@H](C)O)[C@@H](C)O)C(=O)NCC(=O)N[C@@H](Cc1ccc(O)cc1)C(=O)O
result: poor water solubility
--
compound: CCCCCCCCCCCCCCCC(=O)OCC(COP(=O)([O-])OCC[N+](C)(C)C)OC(=O)CCCCOCCCC[C@H](NC(=O)[C@H](C)NC(=O)[C@H](C)NC(C)=O)C(=O)N[C@@H](C)C(=O)N[C@@H](Cc1ccc(O)cc1)C(=O)O (stereo partly shown)
result: poor water solubility
--
compound: CCCCCCCCCCCCCCCC(=O)OC[C@H](COP(=O)([O-])OCC[N+](C)(C)C)OC(=O)CCCCCCCCC[C@H](NC(=O)[C@@H](NC(=O)CNC(=O)[C@@H](NC(C)=O)[C@@H](C)O)[C@@H](C)O)C(=O)NCC(=O)N[C@@H](Cc1ccc(O)cc1)C(=O)O
result: poor water solubility
